Biological target: T1, biotinylated human H202D GDF-15 variant (human, UniProt Q99988 197-308, biotinylated, sites not stated)
T1 construct: also called Human GDF-15 H202D
T1 chain: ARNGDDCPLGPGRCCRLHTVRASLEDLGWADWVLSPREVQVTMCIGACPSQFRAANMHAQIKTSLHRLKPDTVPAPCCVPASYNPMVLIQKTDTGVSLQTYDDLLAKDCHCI
Experiment: HTRF binding assay, biotinylated antigen, titration of antibody
REPORTED_METRIC: binding result

For AB1170148 (antibody, V domains shown) VH: QVQLQQPGAELVRPGTSVKLSCKASGYTFTSYWMHWVKQRPRQGLEWIGLIDPSDNYTNYNQNFKGKATLTVDTSSSTAYMQLGSLTSEDSAVYYCASYDGYSTPSAMDYWGQGTSVTVSS VL: QIVLSQSPAILSASPGEKVTMTCRASSSVNYMHWYQQKPGSSPKPWIYATSNLASGVPARFSGSGSGTSYSLIISRVEAEDAAAYYCQQWSSYPPTFGGGTKLEIK the binder record lists binding result as binds

So for AB1170036 (antibody, V domains shown) VH: DVKLVESGEGLVKPGGSLKLSCAASGFTFSSYAMSWVRQTPEKRLEWVAYISSGGDNIYYADTVKGRFTISRDNARNTLYLQMSSLKSEDTAMYYCTRALVENAYFDYWGQGTTLTVSS VL: DSVLTQSPASLLVSLGQRATISCRASKSVSTSTYSYMHWYQQKPGQPPKLLIKYASYLESGVPARFSGSGSGTDFTLNIHPVEEEDAATYYCQHSREFPWTFGGGTKLEIK , the logged binding result turned out to be binds
